- assay name: Cytotoxicity assay on MRC-5 fibroblasts
- Format: cell-based
- measurement setup: human, MRC-5SV2 embryonic lung fibroblasts; Table 1; mean and SEM of two independent experiments; highest concentration 64 μM; read-out: MRC-5 off-target cytotoxicity (CC50)
Kindly apply the following: Criterion met if CC50 at 3 day is less than 30 µM, Criterion not met in every other case.

Recorded results for 7 compounds are shown here.
CCC(C)Sc1ncnc2c1ccn2[C@@H]1O[C@H](CO)[C@@H](O)[C@H]1O (some centres unmarked)	Criterion not met
CCSc1ncnc2c1ccn2[C@@H]1O[C@H](CO)[C@@H](O)[C@H]1O	Criterion met
OC[C@H]1O[C@@H](n2ccc3c(SCC4CCCC4)ncnc32)[C@H](O)[C@@H]1O	Criterion not met
OC[C@H]1O[C@@H](n2ccc3c(SCc4ccc(Cl)c(Cl)c4)ncnc32)[C@H](O)[C@@H]1O	Criterion met
OC[C@H]1O[C@@H](n2ccc3c(SCCCc4ccccc4)ncnc32)[C@H](O)[C@@H]1O	Criterion met
CC(C)CCSc1ncnc2c1ccn2[C@@H]1O[C@H](CO)[C@@H](O)[C@H]1O	Criterion not met
OC[C@H]1O[C@@H](n2ccc3c(SCc4ccccc4)ncnc32)[C@H](O)[C@@H]1O	Criterion not met

# ---- query compound ----
Is CC50 at 3 day strictly under 30 µM for the entry CSc1ncnc2c1ccn2[C@@H]1O[C@H](CO)[C@@H](O)[C@H]1O ? Criterion not met

---

- assay name: Cytotoxicity assay on MRC-5 fibroblasts
- Type: cell-based
- measurement setup: human, MRC-5SV2 embryonic lung fibroblasts; Table 1; mean and SEM of two independent experiments; highest concentration 64 μM; read-out: MRC-5 off-target cytotoxicity (CC50)
metric name: CC50 at 3 day

Cc1ccc(CSc2ncnc3c2ccn3[C@@H]2O[C@H](CO)[C@@H](O)[C@H]2O)cc1	> 64 µM
CCCCCSc1ncnc2c1ccn2[C@@H]1O[C@H](CO)[C@@H](O)[C@H]1O	35.3 µM
CCCSc1ncnc2c1ccn2[C@@H]1O[C@H](CO)[C@@H](O)[C@H]1O	> 64 µM
OC[C@H]1O[C@@H](n2ccc3c(SCCc4ccccc4)ncnc32)[C@H](O)[C@@H]1O	28.9 µM
CC(C)CSc1ncnc2c1ccn2[C@@H]1O[C@H](CO)[C@@H](O)[C@H]1O	> 64 µM
CCCCSc1ncnc2c1cnn2[C@@H]1O[C@H](CO)[C@@H](O)[C@H]1O	> 64 µM
COc1ccc(CSc2ncnc3c2ccn3[C@@H]2O[C@H](CO)[C@@H](O)[C@H]2O)cc1	> 64 µM

Proceed to the following item.
Consider the molecule OC[C@H]1O[C@@H](n2ccc3c(SCC4CCCCC4)ncnc32)[C@H](O)[C@@H]1O . State its measured CC50 at 3 day. 19 µM

---

- Test system: T. congolense (IL3000)
- assay name: In vitro drug susceptibility assay, T. congolense
- Assay type: cell-based
- measurement setup: Trypanosoma congolense; Table 3; compounds wherein X=N
Give pIC50 for every item shown.
Numbers only, as −log10 of the molar value.

Reference set (3 entries):
CCSc1ncnc2c1cnn2[C@@H]1O[C@H](CO)[C@@H](O)[C@H]1O	6.54
CCCCSc1ncnc2c1cnn2[C@@H]1O[C@H](CO)[C@@H](O)[C@H]1O	6.70
OC[C@H]1O[C@@H](n2ncc3c(SCc4ccccc4)ncnc32)[C@H](O)[C@@H]1O	7.52

Shift focus to the following entry.
Please look at CSc1ncnc2c1cnn2[C@@H]1O[C@H](CO)[C@@H](O)[C@H]1O and tell me its recorded pIC50 on T. congolense (IL3000). 7.15

---

For each record, write down the corresponding IC50.
- Tested on: T. brucei (Squib 427)
- assay name: In vitro drug susceptibility assay, T. brucei
- Format: cell-based
- measurement setup: Trypanosoma brucei; Table 1; mean and SEM of two independent experiments; read-out: T. brucei in vitro activity (IC50)
One number for each entry, in nM.

A selection of reference data follows.
CC(C)c1ccc(CSc2ncnc3c2ccn3[C@@H]2O[C@H](CO)[C@@H](O)[C@H]2O)cc1 [FH15941]	440
CCCSc1ncnc2c1ccn2[C@@H]1O[C@H](CO)[C@@H](O)[C@H]1O [FH15935]	30
CCCCSc1ncnc2c1ccn2[C@@H]1O[C@H](CO)[C@@H](O)[C@H]1O [FH15936]	30

Kindly consider the entry below.
For the compound CSc1ncnc2c1ccn2[C@@H]1O[C@H](CO)[C@@H](O)[C@H]1O [FH15961/CL5565] , give its measured IC50 value. 440

---

- assay name: Cytotoxicity assay on MRC-5 fibroblasts
- Assay type: cell-based
- measurement setup: human, MRC-5SV2 human embryonic lung fibroblasts; Table 2; two independent repeat experiments
Could you please report measured IC50 at 3 day for the items listed next?

As a guide, the following entries are already answered.
C=CCSc1ncnc2c1ccn2[C@@H]1O[C@H](CO)[C@@H](O)[C@H]1O	> 64 µM
OC[C@H]1O[C@@H](n2ccc3c(Sc4ccccc4)ncnc32)[C@H](O)[C@@H]1O	> 64 µM

State its IC50 at 3 day: CSc1ncnc2c1ccn2[C@@H]1O[C@H](CO)[C@@H](O)[C@H]1O > 64 µM

---

- assay name: Cytotoxicity assay on MRC-5 fibroblasts
- Format: cell-based
- measurement setup: human, MRC-5SV2 human embryonic lung fibroblasts; Table 3; compounds wherein X=N
metric name: IC50 at 3 day

CSc1ncnc2c1cnn2[C@@H]1O[C@H](CO)[C@@H](O)[C@H]1O	> 64 µM

Give IC50 at 3 day for each listed item.
1. CCCCSc1ncnc2c1cnn2[C@@H]1O[C@H](CO)[C@@H](O)[C@H]1O
2. CCSc1ncnc2c1cnn2[C@@H]1O[C@H](CO)[C@@H](O)[C@H]1O

1: > 64 µM; 2: > 64 µM

Supply measured IC50 at 3 day of OC[C@H]1O[C@@H](n2ncc3c(SCc4ccccc4)ncnc32)[C@H](O)[C@@H]1O in your reply. > 64 µM

---

- Tested on: T. brucei (Squib 427)
- assay name: In vitro drug susceptibility assay, T. brucei
- Type: cell-based
- measurement setup: Trypanosoma brucei; Table 2; two independent repeat experiments; read-out: IC50 T. brucei
Would you mind telling me the reported IC50 of each entry?
Give bare numbers, in nM.

Recorded IC50, per entry:
C=CCSc1ncnc2c1ccn2[C@@H]1O[C@H](CO)[C@@H](O)[C@H]1O	34
OC[C@H]1O[C@@H](n2ccc3c(Sc4ccccc4)ncnc32)[C@H](O)[C@@H]1O	31

Report the value of IC50 obtained on T. brucei (Squib 427) for CSc1ncnc2c1ccn2[C@@H]1O[C@H](CO)[C@@H](O)[C@H]1O . 490

---

- System: T. brucei (Squib 427)
- assay name: In vitro drug susceptibility assay, T. brucei
- Assay type: cell-based
- measurement setup: Trypanosoma brucei; Table 1; mean and SEM of two independent experiments; read-out: T. brucei in vitro activity (IC50)
metric name: pIC50
Numbers only, as −log10 of the molar value.

Look over these answered cases.
C=CCSc1ncnc2c1ccn2[C@@H]1O[C@H](CO)[C@@H](O)[C@H]1O [FH15963]	7.47
OC[C@H]1O[C@@H](n2ccc3c(SCc4ccccc4)ncnc32)[C@H](O)[C@@H]1O [FH14905]	7.72
CCSc1ncnc2c1cnn2[C@@H]1O[C@H](CO)[C@@H](O)[C@H]1O [JB1032]	6.29
OC[C@H]1O[C@@H](n2ccc3c(SCC4CCCC4)ncnc32)[C@H](O)[C@@H]1O [FH15939]	7.49
OC[C@H]1O[C@@H](n2ccc3c(SCc4ccc(Cl)c(Cl)c4)ncnc32)[C@H](O)[C@@H]1O [FH15934]	7.07

For each of the compounds below, note its pIC50.
1. OC[C@H]1O[C@@H](n2ccc3c(SCC4CCCCC4)ncnc32)[C@H](O)[C@@H]1O [FH15962]
2. OC[C@H]1O[C@@H](n2ccc3c(SC4CCCCC4)ncnc32)[C@H](O)[C@@H]1O [FH15957]
3. OC[C@H]1O[C@@H](n2ccc3c(SCCCc4ccccc4)ncnc32)[C@H](O)[C@@H]1O [FH15940]

7.51
6.72
6.97

---

- System: T. brucei (Squib 427)
- assay name: In vitro drug susceptibility assay, T. brucei
- Format: cell-based
- measurement setup: Trypanosoma brucei; Table 1; mean and SEM of two independent experiments; read-out: T. brucei in vitro activity (IC50)
Kindly state pIC50 for each of the entries shown.
Answers are plain numbers, as −log10 of the molar value.

Worked cases, answers included:
CC(C)CCSc1ncnc2c1ccn2[C@@H]1O[C@H](CO)[C@@H](O)[C@H]1O	7.52
OC[C@H]1O[C@@H](n2ccc3c(SC4CCCC4)ncnc32)[C@H](O)[C@@H]1O	7.04

Could I get pIC50 for every one of these entries?
1. CCSc1ncnc2c1ccn2[C@@H]1O[C@H](CO)[C@@H](O)[C@H]1O
2. CCC(C)Sc1ncnc2c1ccn2[C@@H]1O[C@H](CO)[C@@H](O)[C@H]1O (stereo partly shown)

6.60
6.44

Cited source for all entries: patent US20250320245A1
